Target: EP2 (Homo sapiens, UniProt P43116)
Construct: SF295 glioblastoma cells express high endogenous EP2 and no EP4
Sequence (P43116 whole entry): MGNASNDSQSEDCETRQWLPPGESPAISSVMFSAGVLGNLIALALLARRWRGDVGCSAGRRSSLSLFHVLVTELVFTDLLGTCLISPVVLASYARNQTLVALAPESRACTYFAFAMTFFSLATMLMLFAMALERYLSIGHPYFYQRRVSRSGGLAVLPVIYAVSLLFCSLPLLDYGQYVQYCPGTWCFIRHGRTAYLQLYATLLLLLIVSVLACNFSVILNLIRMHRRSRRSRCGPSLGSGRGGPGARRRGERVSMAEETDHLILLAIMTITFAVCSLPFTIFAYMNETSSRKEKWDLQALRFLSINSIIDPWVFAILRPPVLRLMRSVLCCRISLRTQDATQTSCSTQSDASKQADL
Experiment: hEP2 cAMP Assay (SF295 glioblastoma cells, HTRF cAMP, PGE2 75 nM)
Conditions: antagonistic activity, PGE2 75 nM (EC80)
Experimental: The antagonistic activities of the compounds of formula (I) on the EP2 and EP4 receptors are also determined in accordance with the following experimental method. Human tumor cell lines expressing endogenously either EP4 or EP2 are used and cAMP accumulation in cells upon PGE2 stimulation is monitored. […] The obtained Delta F (fluorescence) values (665 nm/620 nM) are converted into % cAMP values using the measurements of the cAMP calibrator provided in the kit. […]
# pIC50 listing for each entry below
Scale note: pIC50 = -log10(concentration in M).

Known results for molecules:
{"structureAsSmiles": "CCOc1cc(-c2cc(NCCc3ccc(OC)c4ccccc34)ncn2)ccc1OCC(=O)O", "reported": 6.07}
{"structureAsSmiles": "CCOc1cc(-c2cc(NCCc3c(Br)ccc4ccccc34)ncn2)sc1C(=O)O", "reported": 8.30}
{"structureAsSmiles": "CCOc1cc(-c2cc(NCCc3ccc(Cl)c4ccccc34)ncn2)ccc1OCC(=O)O", "reported": 6.62}
{"structureAsSmiles": "CCOc1cc(-c2cc(NCCc3c(OC)ccc4nc(C)ccc34)ncn2)sc1C(=O)O", "reported": 7.62}
{"structureAsSmiles": "COc1ccc2ncccc2c1CCNc1cc(-c2ccc(-c3nnc(N)s3)cc2)ncn1", "reported": 7.57}
{"structureAsSmiles": "CCOc1cc(-c2cc(NCCc3cccc4[nH]ccc34)ncn2)sc1-c1noc(=O)[nH]1", "reported": 7.43}

Request: Quick check: pIC50 of CCOc1cc(-c2cc(NCCc3c(C)ccc4cnccc34)ncn2)sc1C(=O)O ?
Result: 7.49

Request: Quick check: pIC50 of CCOc1cc(-c2cc(NCCc3c(OCC)ccc4c3OCO4)ncn2)sc1C(=O)O ?
Result: 8.00
